Data credit: patent US11530223B2

Each entry below lists one item and its recorded Emax value.
Target desc: NMDAR2D (Homo sapiens, UniProt O15399+Q05586)
Construct: expressed in transfected cells; host or cells: HEK cells (membrane extract)
Sequence (O15399 28-1336, species assumed, other chains not shown): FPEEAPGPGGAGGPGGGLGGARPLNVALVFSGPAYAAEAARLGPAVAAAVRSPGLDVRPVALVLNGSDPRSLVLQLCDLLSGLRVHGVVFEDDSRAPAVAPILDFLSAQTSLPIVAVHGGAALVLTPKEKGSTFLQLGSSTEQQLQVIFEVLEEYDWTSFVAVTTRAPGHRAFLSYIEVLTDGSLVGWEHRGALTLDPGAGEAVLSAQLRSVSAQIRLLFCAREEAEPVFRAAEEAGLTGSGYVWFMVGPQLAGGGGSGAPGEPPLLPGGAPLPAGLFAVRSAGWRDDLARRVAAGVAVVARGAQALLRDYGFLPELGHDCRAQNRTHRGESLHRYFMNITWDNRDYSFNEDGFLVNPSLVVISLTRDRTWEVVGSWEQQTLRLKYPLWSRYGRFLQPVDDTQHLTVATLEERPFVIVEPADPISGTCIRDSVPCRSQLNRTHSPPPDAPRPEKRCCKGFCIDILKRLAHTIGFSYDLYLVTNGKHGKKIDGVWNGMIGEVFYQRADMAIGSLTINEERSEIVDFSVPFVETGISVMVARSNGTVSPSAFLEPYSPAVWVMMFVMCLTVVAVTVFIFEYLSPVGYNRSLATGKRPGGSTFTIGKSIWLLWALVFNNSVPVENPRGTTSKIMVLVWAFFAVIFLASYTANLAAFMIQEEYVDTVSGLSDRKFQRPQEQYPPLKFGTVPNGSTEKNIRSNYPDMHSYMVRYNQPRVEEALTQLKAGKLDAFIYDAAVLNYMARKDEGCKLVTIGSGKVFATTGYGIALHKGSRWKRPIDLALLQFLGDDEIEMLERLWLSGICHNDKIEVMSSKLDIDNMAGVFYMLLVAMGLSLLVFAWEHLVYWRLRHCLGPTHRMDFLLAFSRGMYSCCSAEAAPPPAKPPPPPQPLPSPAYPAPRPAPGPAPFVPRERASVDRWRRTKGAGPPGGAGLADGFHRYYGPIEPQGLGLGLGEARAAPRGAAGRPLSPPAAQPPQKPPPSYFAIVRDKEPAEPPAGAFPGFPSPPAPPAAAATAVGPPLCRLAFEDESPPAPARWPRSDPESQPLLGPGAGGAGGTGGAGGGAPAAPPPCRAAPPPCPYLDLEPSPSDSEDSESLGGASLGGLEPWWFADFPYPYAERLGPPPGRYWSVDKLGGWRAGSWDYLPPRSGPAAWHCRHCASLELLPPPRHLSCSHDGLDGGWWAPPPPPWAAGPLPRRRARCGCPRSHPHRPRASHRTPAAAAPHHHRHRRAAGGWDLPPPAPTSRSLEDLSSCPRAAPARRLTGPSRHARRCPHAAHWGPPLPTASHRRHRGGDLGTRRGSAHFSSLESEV
Experiment summary: [3H]MK-801 binding in NMDAR2D expressing HEK cell membranes
Assay type: biochemical
Test parameters: second part of table; c3, taken as NMDAR2D; read-out: A: % maximal [3H]MK-801 binding relative to 1 mM glycine

// known answers, use as guide
INSERT INTO assay_data (molecule, val) VALUES
  ('CC(C)(C)OC(=O)N1CCCC12CCNC2=O (single isomer, unassigned)', '< 100%'),
  ('CC(C)C(=O)N1CCCC12CCNC2=O (stereo not shown)', '< 100%'),
  ('CC(C)(C)OC(=O)N1CCCCC12CCNC2=O (stereo not shown)', '0%');

In the following, a different molecule is considered.
Consider the molecule O=C1NCCC12CCCCN2 (stereo not shown) and give its recorded Emax.
> 100%

* * *

Experiment summary: oral pharmacokinetics (plasma, brain, CSF)
Format: in vivo
Test parameters: Sprague Dawley rats, per os 10 mg/kg, CSF
# label = fulfilled if CSF Cmax < 1000 ng/mL else not fulfilled

INSERT INTO measurements (compound, group_label) VALUES
  ('O=C1NCCC12CCCNC2 (stereo not drawn) [RB-1, 2,7-diazaspiro[4.5]decan-1-one]', 'fulfilled'),
  ('CC(C)(C)OC(=O)N1CCCCC12CCNC2=O (stereo not drawn) [RG-605]', 'not fulfilled'),
  ('CC(C)C(=O)N1CCC2(CCNC2=O)CC1', 'not fulfilled'),
  ('CC(C)(C)OC(=O)N1CCCC12CCNC2=O (single isomer, unassigned)', 'not fulfilled'),
  ('CC(=O)N1CCC2(CCNC2=O)CC1', 'not fulfilled');

Answer whether the compound CC(C)(C)OC(=O)N1CCCC2(CCNC2=O)C1 (single isomer, unassigned) [RE-1] has CSF Cmax strictly less than 1000 ng/mL
fulfilled

Field: below-cutoff. Rule: recorded CSF Cmax strictly less than 1000 ng/mL. Subject: O=C1NCCC12CCCNC2 (stereo not drawn) [RC-1, 2,7-diazaspiro[4.5]decan-1-one]
fulfilled

# check: CSF Cmax < 1000 ng/mL for CC(C)(C)OC(=O)N1CCCCC12CCNC2=O (stereo not drawn) [RG-606]
not fulfilled

Item O=C1NCCC12CCCN2 (single isomer, unassigned) [RW-1, 1,7-diazaspiro[4.4]nonan-6-one] : CSF Cmax beneath 1000 ng/mL, strictly?
fulfilled

Record CC(C)C(=O)N1CCCC12CCNC2=O (stereo not drawn) : is its CSF Cmax strictly below 1000 ng/mL?
not fulfilled

Could you please tell me whether CSF Cmax recorded for CC(C)(C)OC(=O)N1CCCC2(CCNC2=O)C1 (single isomer, unassigned) [RA-1] is less than 1000 ng/mL?
fulfilled

Given O=C1NCCC12CCCCN2 (stereo not drawn) , is recorded CSF Cmax strictly lower than 1000 ng/mL?
not fulfilled

* * *

Experiment summary: IV pharmacokinetics
Assay type: in vivo
Test parameters: Sprague Dawley rats, intravenous 2 mg/kg, normal saline (first four compounds: 5% NMP, 5% Solutol HS, 90% normal saline)
Property: C0; scope: individual compounds
# number only, unit ng/mL dropped from output

Worked cases, answers included:
INSERT INTO measurements (compound, result_type, val) VALUES
  ('CC(C)(C)OC(=O)N1CCCC2(CCNC2=O)C1 (single isomer, unassigned) [RA-1]', 'C0', 1247.08),
  ('O=C1NCCC12CCCNC2 (stereo not shown) [RC-1, 2,7-diazaspiro[4.5]decan-1-one]', 'C0', 2013.4),
  ('CC(C)(C)OC(=O)N1CCCC2(CCNC2=O)C1 (single isomer, unassigned) [RE-1]', 'C0', 589.9);

Now for another entry.
Please report C0 for the following compound: CC(C)(C)OC(=O)N1CCCCC12CCNC2=O (stereo not shown)
2303
